# System: Bach1 mRNA
# TEST SUMMARY: Initial screen: Bach1 mRNA knock-down in human A549 cells (96-well transfection, quantitative RT-PCR)
# Assay type: cell-based
# CONDITION INFO: Bach1 mRNA, 10 nM siNA, human A549 cells, n = 2, mean ± S.D., normalized to GAPDH and non-targeting control, 24 hrs post-transfection
[invAb] = inverted abasic unit; d = 2'-deoxy (DNA); m = 2'-O-methyl; r = 2'-OH (RNA); f = 2'-fluoro
Hi there, I'd appreciate the recorded % KD for every entry that follows.
I only need the number, in %, no unit after it.

# substance 29964-DC (sense GAUUUGCAGGUGAUGUUAATT; antisense UUAACAUCACCUGCAAAUCUU; inverted abasic end caps, TT overhangs, modified nucleotides, further chemistry not given here) ; its % KD = 90.1

# substance 29966-DC: Bach1 siNA duplex, target site 1375; sense B GGccAAAGAuGGcucAGAA TTB (SEQ 81); antisense UUCuGAGccAucuuuGGccUU (SEQ 82) (sense GGCCAAAGAUGGCUCAGAATT; antisense UUCUGAGCCAUCUUUGGCCUU; sense: DNA at AGT, 2'-fluoro at CU, [invAb] at 5' end, 3' end, backbone not given here; antisense: sugars from the 5' end rrrfmmmffmfffffmmffmm, backbone not given here) ; its % KD = 57.3

# substance 29970-DC: Bach1 siNA duplex, target site 1472 (mouse); sense B GAGuGucccuGGuuGGGuA TTB (SEQ 89); antisense UACccAAccAGGGAcAcucUU (SEQ 90) (sense GAGUGUCCCUGGUUGGGUATT; antisense UACCCAACCAGGGACACUCUU; sense: DNA at AGT, 2'-fluoro at CU, [invAb] at 5' end, 3' end, backbone not given here; antisense: sugars from the 5' end rrrffmmffmmmmmfmfffmm, backbone not given here) ; its % KD = 46.8

# substance 29955-DC: Bach1 siNA duplex, target site 737; sense B GAGuccAuGuGcuuAGAGA TTB (SEQ 59); antisense UCUcuAAGcAcAuGGAcucUU (SEQ 60) (sense GAGUCCAUGUGCUUAGAGATT; antisense UCUCUAAGCACAUGGACUCUU; sense: sugars from the 5' end rrrfffdfdfdfffddddddd, [invAb] at 5' end, 3' end, backbone not given here; antisense: sugars from the 5' end rrrffmmmfmfmfmmmfffmm, backbone not given here) ; its % KD = 14.6

# substance 29958-DC: Bach1 siNA duplex, target site 851; sense B GucAAAGAcAuucAuGcuu TTB (SEQ 65); antisense AAGcAuGAAuGucuuuGAcUU (SEQ 66) (sense GUCAAAGACAUUCAUGCUUTT; antisense AAGCAUGAAUGUCUUUGACUU; sense: DNA at AGT, 2'-fluoro at CU, [invAb] at 5' end, 3' end, backbone not given here; antisense: sugars from the 5' end rrrfmfmmmfmfffffmmfmm, backbone not given here) ; its % KD = 75.7

# substance 29973-DC: Bach1 siNA duplex, target site 1780 (mouse); sense B cucAcGAAAuGAuuuccAA TTB (SEQ 95); antisense UUGGAAAucAuuucGuGAGUU (SEQ 96) (sense CUCACGAAAUGAUUUCCAATT; antisense UUGGAAAUCAUUUCGUGAGUU; sense: DNA at AGT, 2'-fluoro at CU, [invAb] at 5' end, 3' end, backbone not given here; antisense: sugars from the 5' end rrrmmmmffmffffmfmmmmm, backbone not given here) ; its % KD = −8

# substance 29960-DC: Bach1 siNA duplex, target site 1377; sense B ccAAAGAuGGcucAGAAcA TTB (SEQ 69); antisense UGUucuGAGccAucuuuGGUU (SEQ 70) (sense CCAAAGAUGGCUCAGAACATT; antisense UGUUCUGAGCCAUCUUUGGUU; sense: DNA at AGT, 2'-fluoro at CU, [invAb] at 5' end, 3' end, backbone not given here; antisense: sugars from the 5' end rrrfffmmmffmfffffmmmm, backbone not given here) ; its % KD = 34

# substance 29953-DC: Bach1 siNA duplex, target site 1096; sense B cAcAuAuGAccAAuAuGGu TTB (SEQ 55); antisense ACCAuAuuGGucAuAuGuGUU (SEQ 56) (sense CACAUAUGACCAAUAUGGUTT; antisense ACCAUAUUGGUCAUAUGUGUU; sense: DNA at AGT, 2'-fluoro at CU, [invAb] at 5' end, 3' end, backbone not given here; antisense: sugars from the 5' end rrrmfmffmmffmfmfmfmmm, backbone not given here) ; its % KD = 24

====

# Tested on: Bach1 mRNA
# TEST SUMMARY: Dose-response curve of Bach1 mRNA knock-down in human A549 cells
# Type: cell-based
# CONDITION INFO: Table 6, Bach1 mRNA, mean ± SD
MEASUREMENT LABEL: Maximum % KD in DRC (%)
I only need the number, in %, no unit after it.

# substance 29956-DC (sense GUCUGAGUGUCCGUGGUUATT; antisense UAACCACGGACACUCAGACUU; inverted abasic caps (B), 2'-modified nucleotides, further chemistry not given here) ; its Maximum % KD in DRC = 80

# substance 29988-DC (sense AUUUGAACCUUUAAUUCAGTT; antisense CUGAAUUAAAGGUUCAAAUUU; inverted abasic end caps, TT overhangs, modified nucleotides, further chemistry not given here) ; its Maximum % KD in DRC = 84

# substance 29947-DC (sense GGAAUCCUGCUUUCAGUUUTT; antisense AAACUGAAAGCAGGAUUCCUU; inverted abasic caps (B), 2'-modified nucleotides, further chemistry not given here) ; its Maximum % KD in DRC = 86

# substance 29957-DC (sense GCAGUUACUUCCACUCAAGTT; antisense CUUGAGUGGAAGUAACUGCUU; inverted abasic end caps, TT overhangs, modified nucleotides, further chemistry not given here) ; its Maximum % KD in DRC = 87

# substance 29964-DC (sense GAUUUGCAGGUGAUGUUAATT; antisense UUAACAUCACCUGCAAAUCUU; inverted abasic end caps, TT overhangs, modified nucleotides, further chemistry not given here) ; its Maximum % KD in DRC = 87

# substance 29961-DC (sense CUACACUGCUAAACUGAUUTT; antisense AAUCAGUUUAGCAGUGUAGUU; inverted abasic end caps, TT overhangs, modified nucleotides, further chemistry not given here) ; its Maximum % KD in DRC = 89

====

# Test system: Bach1 mRNA
# TEST SUMMARY: Initial screen: Bach1 mRNA knock-down in human A549 cells (96-well transfection, quantitative RT-PCR)
# Type: cell-based
# CONDITION INFO: Bach1 mRNA, 10 nM siNA, human A549 cells, n = 2, mean ± S.D., normalized to GAPDH and non-targeting control, 24 hrs post-transfection
[invAb] = inverted abasic unit; m = 2'-O-methyl; r = 2'-OH (RNA); f = 2'-fluoro
MEASUREMENT LABEL: % KD (%)
I only need the number, in %, no unit after it.

# substance 29983-DC: Bach1 siNA duplex, target site 363; sense B GAuuuGAAccuuuAAuucA TTB (SEQ 115); antisense UGAAuuAAAGGuucAAAucUU (SEQ 116) (sense GAUUUGAACCUUUAAUUCATT; antisense UGAAUUAAAGGUUCAAAUCUU; sense: DNA at AGT, 2'-fluoro at CU, [invAb] at 5' end, 3' end, backbone not given here; antisense: sugars from the 5' end rrrmffmmmmmfffmmmffmm, backbone not given here) ; its % KD = 74.7

# substance 29981-DC: Bach1 siNA duplex, target site 331 (mouse); sense B cAGcuAcuuccAcucGAGA TTB (SEQ 111); antisense UCUcGAGuGGAAGuAGcuGUU (SEQ 112) (sense CAGCUACUUCCACUCGAGATT; antisense UCUCGAGUGGAAGUAGCUGUU; sense: DNA at AGT, 2'-fluoro at CU, [invAb] at 5' end, 3' end, backbone not given here; antisense: sugars from the 5' end rrrfmmmfmmmmmfmmffmmm, backbone not given here) ; its % KD = 1

# substance 29967-DC: Bach1 siNA duplex, target site 494 (mouse); sense B GAGuuucuAAGcGuAcAcA TTB (SEQ 83); antisense UGUGuAcGcuuAGAAAcucUU (SEQ 84) (sense GAGUUUCUAAGCGUACACATT; antisense UGUGUACGCUUAGAAACUCUU; sense: DNA at AGT, 2'-fluoro at CU, [invAb] at 5' end, 3' end, backbone not given here; antisense: sugars from the 5' end rrrmfmfmfffmmmmmfffmm, backbone not given here) ; its % KD = 34.6

====

# System: HMOX1 mRNA
# TEST SUMMARY: HMOX1 (HO-1) mRNA upregulation in human bronchial epithelial cells (NHBE)
# Assay type: cell-based
# CONDITION INFO: 48 hours post transfection, mean of 3 donors
Hi there, I'd appreciate the recorded pEC50 for every entry that follows.
The read-out pEC50 is expressed as -log10 of concentration in moles per litre.

# substance 29964-DC (sense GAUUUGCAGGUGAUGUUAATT; antisense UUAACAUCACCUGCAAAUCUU; inverted abasic end caps, TT overhangs, modified nucleotides, further chemistry not given here) ; its pEC50 = 7.52

# substance 29956-DC (sense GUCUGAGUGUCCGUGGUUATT; antisense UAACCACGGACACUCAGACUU; inverted abasic caps (B), 2'-modified nucleotides, further chemistry not given here) ; its pEC50 = 7.48

# substance 29957-DC (sense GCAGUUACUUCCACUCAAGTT; antisense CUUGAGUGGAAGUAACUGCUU; inverted abasic end caps, TT overhangs, modified nucleotides, further chemistry not given here) ; its pEC50 = 7.53

# substance 29988-DC (sense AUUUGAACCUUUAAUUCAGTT; antisense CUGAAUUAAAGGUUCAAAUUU; inverted abasic end caps, TT overhangs, modified nucleotides, further chemistry not given here) ; its pEC50 = 7.46

# substance 29961-DC (sense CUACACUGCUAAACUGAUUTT; antisense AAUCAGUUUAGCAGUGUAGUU; inverted abasic end caps, TT overhangs, modified nucleotides, further chemistry not given here) ; its pEC50 = 7.30
